target: HMG-CoA-Reduktase (Rattus norvegicus, UniProt P51639); construct: solubilisierten Enzympräparationen aus Lebermikrosomen von Ratten; test: Inhibition of HMG-CoA reductase activity in solubilised enzyme preparations from rat liver microsomes; conditions: solubilised enzyme from liver microsomes of cholestyramine-induced rats; substrate (S,R)14C-HMG-CoA; mean of 3 parallel samples; read-out: IC50-Wert M
Sequence (P51639 whole entry): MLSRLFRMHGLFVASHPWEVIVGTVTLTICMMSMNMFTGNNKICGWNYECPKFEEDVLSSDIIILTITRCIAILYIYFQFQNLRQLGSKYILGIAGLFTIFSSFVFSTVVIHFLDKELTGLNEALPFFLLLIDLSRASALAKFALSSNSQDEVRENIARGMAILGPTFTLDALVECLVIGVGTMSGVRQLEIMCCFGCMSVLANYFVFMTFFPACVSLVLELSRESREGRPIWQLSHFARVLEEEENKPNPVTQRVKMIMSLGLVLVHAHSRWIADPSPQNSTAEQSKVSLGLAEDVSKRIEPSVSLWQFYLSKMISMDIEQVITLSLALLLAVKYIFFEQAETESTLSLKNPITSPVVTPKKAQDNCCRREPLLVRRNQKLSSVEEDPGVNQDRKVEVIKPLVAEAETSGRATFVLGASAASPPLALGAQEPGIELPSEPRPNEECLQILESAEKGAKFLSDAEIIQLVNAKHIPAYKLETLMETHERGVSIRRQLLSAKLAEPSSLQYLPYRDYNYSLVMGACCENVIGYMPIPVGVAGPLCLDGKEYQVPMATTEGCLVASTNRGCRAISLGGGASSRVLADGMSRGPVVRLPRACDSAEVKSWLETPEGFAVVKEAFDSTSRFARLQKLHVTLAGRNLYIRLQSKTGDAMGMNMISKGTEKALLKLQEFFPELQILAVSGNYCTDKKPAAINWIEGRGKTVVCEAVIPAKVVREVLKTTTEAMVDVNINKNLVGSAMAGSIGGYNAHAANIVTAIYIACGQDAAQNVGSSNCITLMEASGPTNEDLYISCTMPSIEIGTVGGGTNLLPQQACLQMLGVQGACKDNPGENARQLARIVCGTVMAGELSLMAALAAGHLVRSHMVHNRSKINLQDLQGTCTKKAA
test-readout: IC50 (nM)

Cc1cc(C)c(OC[C@@H]2C[C@@H](O)CC(=O)O2)c(CC2CCCCC2)c1 = 100
Cc1cc(Cl)cc(C(c2ccc(F)cc2)c2ccc(F)cc2)c1OC[C@@H]1C[C@@H](O)CC(=O)O1 = 100
COc1ccc(C(c2ccc(F)cc2)c2cc(C)cc(C)c2OC[C@@H]2C[C@@H](O)CC(=O)O2)cc1 (stereo partly drawn) = 100
